# credit: ChEMBL document CHEMBL6115017

Here the recorded fraction unbound is given for each entry.
Assay: Fraction unbound in human plasma
Assay type: ADME, cell-free

- testSmiles: "CC(C)(O)c1ncc([S@](N)(=O)=NC(=O)Nc2c3c(c(F)c4c2CCC4)CCC3)s1"
  fraction unbound: 0.003
- testSmiles: "CC(C)(O)c1cnc([S@](N)(=O)=NC(=O)Nc2c3c(cc4c2CCC4)CCC3)s1"
  fraction unbound: 0.009
- testSmiles: "CC(C)(O)c1csc([S@](N)(=O)=NC(=O)Nc2c3c(cc4c2CCC4)CCC3)c1"
  fraction unbound: 0.009
- testSmiles: "CC(C)(O)c1ncc([S@](N)(=O)=NC(=O)Nc2c3c(cc4c2CCC4)CCC3)s1"
  fraction unbound: 0.006
- testSmiles: "CC(C)(O)c1coc(S(=O)(=O)NC(=O)Nc2c3c(cc4c2CCC4)CCC3)c1"
  fraction unbound: 0.007
- testSmiles: "CC(C)(O)c1csc([S@](N)(=O)=NC(=O)Nc2c3c(cc4c2CCC4)CCC3)n1"
  fraction unbound: 0.014
- testSmiles: "CC(C)(O)c1nc([S@](N)(=O)=NC(=O)Nc2c3c(cc4c2CCC4)CCC3)cs1"
  fraction unbound: 0.057

###

Molecular target: UniProtKB P20815
Sequence (P20815 whole entry): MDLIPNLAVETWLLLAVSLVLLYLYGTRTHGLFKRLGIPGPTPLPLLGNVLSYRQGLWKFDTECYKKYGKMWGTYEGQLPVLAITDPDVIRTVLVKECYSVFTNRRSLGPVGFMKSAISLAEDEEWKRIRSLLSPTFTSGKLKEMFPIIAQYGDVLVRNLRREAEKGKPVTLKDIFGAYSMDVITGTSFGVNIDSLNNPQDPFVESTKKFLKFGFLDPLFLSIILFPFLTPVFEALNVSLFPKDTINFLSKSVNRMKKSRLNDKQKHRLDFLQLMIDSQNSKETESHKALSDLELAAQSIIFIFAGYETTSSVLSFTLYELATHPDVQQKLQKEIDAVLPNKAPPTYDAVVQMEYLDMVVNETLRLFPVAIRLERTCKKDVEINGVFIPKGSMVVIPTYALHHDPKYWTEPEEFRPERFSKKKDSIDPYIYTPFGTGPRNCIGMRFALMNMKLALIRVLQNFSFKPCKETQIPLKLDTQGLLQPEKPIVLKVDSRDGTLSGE
Assay: Inhibition of CYP3A5 (unknown origin)
Format: ADME
recordedEndpoint: IC50

- testSmiles: "CC(C)(O)c1ncc([S@](N)(=O)=NC(=O)Nc2c3c(cc4c2CCC4)CCC3)s1"
  result: "> 60 µM"

###

System: THP-1
Assay: Inhibition of pyroptosis in PMA-primed human THP-1 cells assessed as release of lactate dehydrogenase

- testSmiles: "CC(C)(O)c1ncc([S@](N)(=O)=NC(=O)Nc2c3c(cc4c2CCC4)CCC3)s1"
  IC50 [nM]: 27

###

Assay: Metabolic stability in dog hepatocytes assessed as intrinsic clearance measured per 10^6 cells
Format: ADME, cell-based, Canis lupus familiaris, Hepatocyte
Settings: read-out: CLH
recordedEndpoint: hepatocyte CLint

- testSmiles: "CC(C)(O)c1ncc([S@](N)(=O)=NC(=O)Nc2c3c(cc4c2CCC4)CCC3)s1"
  result: "< 1.9 µL/min/1e6 cells"

###

Test: AUC (infinity) in C57 BL6 mouse at 10 mg/kg, po by LC-MS analysis
Type: ADME, organism-based
Details: in vivo

- testSmiles: "CC(C)(O)c1ncc([S@](N)(=O)=NC(=O)Nc2c3c(cc4c2CCC4)CCC3)s1"
  AUC(0-inf), µg·h/mL: 261

###

Experiment: Half life in Cynomolgus monkey at 5 mg/kg, po and 2 mg/kg, iv by LC-MS analysis
Format: ADME, organism-based, Macaca fascicularis
Settings: in vivo

- testSmiles: "CC(C)(O)c1ncc([S@](N)(=O)=NC(=O)Nc2c3c(cc4c2CCC4)CCC3)s1"
  half-life [min]: 312

###

Assay: Cmax in Sprague-Dawley rat at 5 mg/kg, po by LC-MS analysis
Type: ADME, organism-based
Conditions: in vivo
recordedEndpoint: Cmax (ng/mL)

- testSmiles: "CC(C)(O)c1ncc([S@](N)(=O)=NC(=O)Nc2c3c(cc4c2CCC4)CCC3)s1"
  recordedEndpoint: "Cmax"
  numericReadout: 8860

###

Test: Fraction unbound in Sprague-Dawley rat plasma
Format: ADME, cell-free

- testSmiles: "CC(C)(O)c1csc([S@](N)(=O)=NC(=O)Nc2c3c(cc4c2CCC4)CCC3)n1"
  fraction unbound: 0.02
- testSmiles: "CC(C)(O)c1ncc([S@](N)(=O)=NC(=O)Nc2c3c(c(F)c4c2CCC4)CCC3)s1"
  fraction unbound: 0.007
- testSmiles: "CC(C)(O)c1csc([S@](N)(=O)=NC(=O)Nc2c3c(cc4c2CCC4)CCC3)c1"
  fraction unbound: 0.011
- testSmiles: "CC(C)(O)c1coc(S(=O)(=O)NC(=O)Nc2c3c(cc4c2CCC4)CCC3)c1"
  fraction unbound: 0.013
- testSmiles: "CC(C)(O)c1nc([S@](N)(=O)=NC(=O)Nc2c3c(cc4c2CCC4)CCC3)cs1"
  fraction unbound: 0.05
- testSmiles: "CC(C)(O)c1ncc([S@](N)(=O)=NC(=O)Nc2c3c(cc4c2CCC4)CCC3)s1"
  fraction unbound: 0.012

###

Test: Metabolic stability in rat hepatocytes assessed as intrinsic clearance measured per 10^6 cells
Type: ADME, cell-based, Hepatocyte
Details: read-out: CLH
Given measured hepatocyte CLint, output condition met if it is greater than or equal to 5 µL/min/1e6 cells and condition not met if not.

- testSmiles: "CC(C)(O)c1ncc([S@](N)(=O)=NC(=O)Nc2c3c(c(F)c4c2CCC4)CCC3)s1"
  discreteLabel: "condition not met"
- testSmiles: "CC(C)(O)c1csc([S@](N)(=O)=NC(=O)Nc2c3c(cc4c2CCC4)CCC3)c1"
  discreteLabel: "condition not met"
- testSmiles: "CC(C)(O)c1nc([S@](N)(=O)=NC(=O)Nc2c3c(cc4c2CCC4)CCC3)cs1"
  discreteLabel: "condition met"
- testSmiles: "CC(C)(O)c1csc([S@](N)(=O)=NC(=O)Nc2c3c(cc4c2CCC4)CCC3)n1"
  discreteLabel: "condition met"
- testSmiles: "CC(C)(O)c1cnc([S@](N)(=O)=NC(=O)Nc2c3c(cc4c2CCC4)CCC3)s1"
  discreteLabel: "condition met"
- testSmiles: "CC(C)(O)c1ncc([S@](N)(=O)=NC(=O)Nc2c3c(cc4c2CCC4)CCC3)s1"
  discreteLabel: "condition met"

###

Assay: Lipophilicity, log D of compound in potassium phosphate buffer/octanol at pH 7.4
Type: physicochemical

- testSmiles: "CC(C)(O)c1ncc([S@](N)(=O)=NC(=O)Nc2c3c(cc4c2CCC4)CCC3)s1"
  logD: 2.37

###

Let's look at some compounds and their measured bioavailability.
Experiment: Oral bioavailability in Sprague-Dawley rat at 5 mg/kg administered through oral gavage by LC-MS analysis
Format: ADME, organism-based
Details: in vivo

- testSmiles: "CC(C)(O)c1ncc([S@](N)(=O)=NC(=O)Nc2c3c(cc4c2CCC4)CCC3)s1"
  bioavailability / %: 82
- testSmiles: "CC(C)(O)c1ncc([S@](N)(=O)=NC(=O)Nc2c3c(c(F)c4c2CCC4)CCC3)s1"
  bioavailability / %: 68
- testSmiles: "CC(C)(O)c1csc([S@](N)(=O)=NC(=O)Nc2c3c(cc4c2CCC4)CCC3)n1"
  bioavailability / %: 70
- testSmiles: "CC(C)(O)c1coc(S(=O)(=O)NC(=O)Nc2c3c(cc4c2CCC4)CCC3)c1"
  bioavailability / %: 47
- testSmiles: "CC(C)(O)c1nc([S@](N)(=O)=NC(=O)Nc2c3c(cc4c2CCC4)CCC3)cs1"
  bioavailability / %: 100
